Values from patent US20090285813A1

Measured Apo-One Apoptosis Assay, 25 ng/ml, second block (ratio to Fc null) accompanies every entry in the list below.
Target: human CD3 (human) (UniProt P07766)
Sequence (P07766 23-207): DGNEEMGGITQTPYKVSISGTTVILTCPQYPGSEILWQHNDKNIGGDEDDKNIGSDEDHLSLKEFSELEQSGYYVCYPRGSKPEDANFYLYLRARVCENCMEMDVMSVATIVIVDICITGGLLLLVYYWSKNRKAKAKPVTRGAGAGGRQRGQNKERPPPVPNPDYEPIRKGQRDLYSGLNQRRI
Assay: cell-based or functional assay
Just the number, please.

## Input Report measured Apo-One Apoptosis Assay, 25 ng/ml, second block (ratio to Fc null); entry is anti-CD3 HuFR antibody 4 (heavy chain BD20611, light chain BD21133) (antibody, part only; not given: Heavy stretch before framework 4, V domains shown, part only) VH, part: QVQLVESGAEVKKPGASVKVSCKASGYTFTRYTMHWVRQAPGKGLEWMGYINPSRGYTNYNQKFKDRLTISKDTSKNQVVLTMTNMDPVDTATYYCARYYDDHYCLDYVTVSSASTKGPS VL: DIVMTQSPLSLPVTPGEPASISCSASSSVSYMNWYQQKPGQPPKLLIYDTSKLASGVPSRFSGSGSGTEFTLTISSLQPDDFATYYCQQWSSNPFTFGQGTKVEIKFGQGTKVEIKR
## Output 3.2

## Input Report measured Apo-One Apoptosis Assay, 25 ng/ml, second block (ratio to Fc null); entry is anti-CD3 HuFR antibody 3 (heavy chain BD20611, light chain BD21132) (antibody, part only; not given: Heavy stretch before framework 4, V domains shown, part only) VH, part: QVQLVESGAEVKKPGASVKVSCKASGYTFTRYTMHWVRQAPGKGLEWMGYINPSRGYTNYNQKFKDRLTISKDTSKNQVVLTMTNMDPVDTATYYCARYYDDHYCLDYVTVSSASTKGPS VL: EIVLTQSPATLSLSPGERATLSCSASSSVSYMNWYQQKPGKAPKLLIYDTSKLASGVPSRFSGSGSGTEFTLTISSLQPDDFATYYCQQWSSNPFTFGQGTKVEIKFGQGTKVEIKR
## Output 1.2

## Input Report measured Apo-One Apoptosis Assay, 25 ng/ml, second block (ratio to Fc null); entry is anti-CD3 HuFR antibody 1 (heavy chain BD20610, light chain BD21130) (antibody, part only; not given: Heavy stretch before framework 4, V domains shown, part only) VH, part: QVQLVESGAEVKKPGASVKVSCKASGYTFTRYTMHWVRQAPGKGLEWMGYINPSRGYTNYNQKFKDRVTISVDTSKNQFSLKLSSVTAADTAVYYCARYYDDHYCLDYVTVSSASTKGPS VL: DIQMTQSPSSLSASVGDRVTITCSASSSVSYMNWYQQKPGQPPKLLIYDTSKLASGVPDRFSGSGSGTDFTLKISRVEAEDVGVYYCQQWSSNPFTFGQGTKVEIKFGQGTKVEIKR
## Output 1.7
